- Test system: MT4
- Measurement protocol: In vitro concentration required to cause death of uninfected MT-4 cell
- Format: functional
- Reported conditions: Homo sapiens
Measurement kind: CC50

Request: Provide CC50, tested on MT4, for NCCCCNC(=O)OCC1OC(n2ccc(N)nc2=O)CS1 (stereo unspecified) .
Response: > 218 µM

Next:
Request: Enter CC50 (test system MT4) for Nc1ccn(C2CSC(COC(=O)NCCCCCCO)O2)c(=O)n1 (stereo unspecified)
Response: > 208 µM

Request: // output CC50; input CCOP(=O)(CNC(=O)OCC1OC(n2ccc(N)nc2=O)CS1)OCC (stereo unspecified) ; system MT4
Response: > 233 µM

Request: Look up and report CC50, with MT4 as system, for Nc1ccn([C@@H]2CS[C@H](CO)O2)c(=O)n1 [LAMIVUDINE]
Response: > 44 µM

Request: # lookup: MT4 CC50, key = NCCCOC(=O)OCC1OC(n2ccc(N)nc2=O)CS1 (stereo unspecified)
Response: > 17 µM

Request: Quote CC50 with test system MT4 for Nc1ccn(C2CSC(COC(=O)NCCCCO)O2)c(=O)n1 (stereo unspecified)
Response: > 217 µM

Every entry's value here was drawn from ChEMBL document CHEMBL1136122.
